Sourced from ChEMBL document CHEMBL1201862

Quick list: GI50 per entry.
Test system: OVCAR-3
Test: NCI tumour cell line growth inhibition, 48 h
Calls of active or inactive are those of the source. Rule as the data show it: active = GI50 up to about 1.1 µM and inactive = higher.

{"columns": ["COMPOUND", "VALUE_MEASURED"],
 "data": [
  ["O=C(Cc1ccccc1)NN1C(=O)C(Cl)C1c1ccccc1 (stereo not given)", "37.2 µM (inactive)"],
  ["N/N=C(\\CC1OC(=O)c2ccccc21)c1ccco1 (stereo not given)", "> 100 µM (inactive)"],
  ["CCOc1ccc(NC(=O)C2=C(C)NC(C)=C(C(=O)Nc3ccc(OCC)cc3)C2c2ccc(O)c(OC)c2)cc1", "> 100 µM (inactive)"],
  ["CC(=O)C1C(c2ccccc2)C2(C)OC(=O)C(C#N)C12C (stereo not given)", "> 100 µM (inactive)"]
]}

From here, focus on the item given below.
Give reported GI50 value for COc1ccc(COC(=O)NNC(=O)C2CSC(c3ccccc3)N2C(C)=O)cc1 (stereo not given)
> 100 µM (inactive)

---

System: NCI/ADR-RES
Experiment: NCI tumour cell line growth inhibition, 48 h
The source made the active and inactive calls. No stated cut-off is given here; in the data, active = GI50 up to about 1.1 µM and inactive = higher.
Write down the outcome that applies. Available outcomes: true for active, false for inactive

{"columns": ["MOLECULE", "ASSIGNED_CLASS"],
 "data": [
  ["C[C@@H]1[C@@H](c2ccccc2)O[B-](c2ccccc2)(c2ccccc2)N1C", "false"],
  ["COC(=O)c1cc(/C=C2\\Cc3cc4c(cc3C2=O)CCC4)cc2c1CCC2", "false"],
  ["Fc1ccc(C(OCCN2CC3CC2CN3)c2ccc(F)cc2)cc1 (centres undefined)", "false"]
]}

Now for a further molecule.
Status in this test for c1ccc2c(c1)c1c(n2CCOCCN2CCCCC2)CCCC1 ?
false

---

Tested on: CCRF-CEM
Experiment: NCI tumour cell line growth inhibition, 48 h
Active and inactive are the calls of the source. Rule as the data show it: active = GI50 up to about 1.1 µM and inactive = higher.
Form entry, call: pick from Yes (active), No (inactive)

{"columns": ["COMPOUND", "ASSIGNED_CLASS"],
 "data": [
  ["C=CC(=O)Nc1ccccc1CC(c1c[nH]c2ccccc12)c1c[nH]c2ccccc12", "No"],
  ["CCOC(=O)c1cc(=O)c2ccnc3c2n1CCS3", "No"],
  ["Oc1cc(-c2cccc3ccccc23)nc2ncccc12", "Yes"]
]}

What call does the record list for O=C1C2C3C=CC(C2C(=O)N1CN1CCSCC1)C1C2C(=O)N(CN4CCSCC4)C(=O)C2C31 (centres undefined) ?
No

I'd appreciate the recorded outcome for CNC(C#N)c1ccc(OC)cc1 (centres undefined) from this test.
No

Could you kindly confirm the outcome this assay logged for COc1c2c(cc3c1OCO3)C13C=CC(OC)CC1N(CC3)C2.[O-][Cl+3]([O-])([O-])O (centres undefined) ?
No

Given O=S(=O)(O)c1c(/N=N/c2c(O)ccc3ccccc23)ccc2ccccc12 , state the outcome it received in this test.
No

Record lookup: outcome of this test for CCCCCCCCCCCCCCCCCc1cccc(OCOCCOC)c1CO ?
No

Write down the call the test reported for this compound. Item: O=C(/C=C/c1ccc2c(c1)OCO2)NCCc1ccco1
No

Just curious, what result did COc1cc(CCc2ccc(OCCN(C)C)cc2)cc(OC)c1OC get here?
No

Per the assay record, what outcome was assigned to COc1ccc2c(c1)-c1c(c3cc(OC)ccc3n1CCCN(C)C)CC2 ?
No

In this assay, the call recorded for c1ccc(-c2nnn3c2NC2=C(CCCC2)C3c2ccccc2)cc1 (centres undefined) was what?
No

Status in this test for CCCCCC(=O)OCC(=O)[C@H]1[C@H](C)C[C@H]2[C@@H]3C[C@H](F)C4=C/C(=N/OC(=O)c5cccc6c(=O)c7ccccc7[nH]c56)C=C[C@]4(C)[C@H]3[C@@H](O)C[C@@]21C ?
No

How was O=C(CO[N+](=O)[O-])OCC(=O)c1ccccc1 classified in this test?
No

---

Tested on: HCT-116
Assay: NCI tumour cell line growth inhibition, 48 h
The source made the active and inactive calls. No stated cut-off is given here; in the data, active = GI50 up to about 1.1 µM and inactive = higher.
Each item that follows carries a reported GI50.

{"columns": ["COMPOUND", "GI50"],
 "data": [
  ["O=S(=O)(O)c1c(/N=N/c2c(O)ccc3ccccc23)ccc2ccccc12", "> 100 µM (inactive)"]
]}

For the compound CC1=C(C#N)S(=O)(=O)c2c(oc(C)c2C)N1 , give its measured GI50 value.
> 100 µM (inactive)

Determine from records and report GI50 for Cn1c(N)nc2c(nc(OCc3ccccc3)n2C2OC(CO)C(O)C2O)c1=O (stereo unspecified)
> 100 µM (inactive)

For the compound C[C@@H](NC1CCC[C@H]1O)c1ccccc1 (stereo partly specified) , give its reported GI50.
> 100 µM (inactive)

Recall and state the measured GI50 for C=C1CN(C2=NCCO2)C1 .
> 100 µM (inactive)

Let me know recorded GI50 for C/C(=N\NC(=S)N1CCCCC1)c1nc2cccnc2[nH]1 , thanks.
4.19 µM (inactive)

---

Test system: RPMI-8226
Test: NCI tumour cell line growth inhibition, 48 h
The source made the active and inactive calls. No stated cut-off is given here; in the data, active = GI50 up to about 1.1 µM and inactive = higher.
Please state which outcome applies, choosing from T = active, F = inactive

{"columns": ["MOLECULE", "ASSIGNED_CLASS"],
 "data": [
  ["N=c1oc2ccccc2cc1-c1nc2ccccc2c(=O)[nH]1", "F"]
]}

Fill in: this test's call for CCCCN(CCCC)C1=Nc2ccccc2-n2c(nnc2C(=O)OCC)C1 is ___
F

How did this test come out for CCOC(=O)c1sc2nc(SC)nc3c2c1NCN3C1CC1 ?
F

Status in this test for O=[N+]([O-])c1ccc(NN=C2c3ccccc3Cc3ccccc32)c([N+](=O)[O-])c1 ?
F

Just curious, what result did CCCCOC(=O)NC(c1ccccc1)C(O)C(=O)OC1C[C@@]2(O)C(OC(=O)c3ccccc3)C3[C@](C)(C(=O)[C@H](OC(C)=O)C(=C1C)C2(C)C)[C@@H](O)C[C@H]1OC[C@@]31OC(C)=O (stereo partly drawn) get here?
T

Recorded call for Cn1c(=O)c2[nH]cnc2n(CC(N)=O)c1=O ?
F

Which outcome was entered for the molecule CC1=Nc2sc3c(c2C2=NCCN12)CCCC3 in this test?
F

# fetch the recorded call for CCCCSC1=N/C(=C\c2ccccc2O)C(Cl)=N1 here
F

Hello, I am checking results. What call was entered for CCCCCCCCCCCCCCCCOCC(CCl)OP(=O)(O)OP(=O)(O)OCC1OC(n2ccc(N)nc2=O)C(O)C1O (stereo not drawn) ?
F

What did this assay record as the result for CC(=O)OCC1OC(O[C@@H]2C[C@H]3C(C)(C)[C@H](OC(C)=O)CC[C@]3(C)[C@H]3CC[C@]4(C)C(=CC[C@H]4[C@@H](C)C[C@@H](O)[C@H](O)C(C)(C)O)[C@@]32C)C(O)C(O)C1O (stereo partly drawn) ?
F

---

System: HL-60
Assay: NCI tumour cell line growth inhibition, 48 h
Activity calls are given as the source filed them. Rule as the data show it: active = GI50 up to about 1.1 µM and inactive = higher.
Thanks in advance; please answer with one of these: active, inactive

{"columns": ["MOLECULE", "ASSIGNED_CLASS"],
 "data": [
  ["CC(C)C1CO[C@]2(C)CCC(=O)N12 (stereo not given in full)", "inactive"],
  ["Cc1ccc(CCNC(=S)SCC(NC(=O)CCC(N)C(=O)O)C(=O)NCC(=O)O)cc1 (stereo not given)", "active"],
  ["BrC1(c2ccccc2)C[n+]2c(-c3ccccc3)cc(-c3ccccc3)cc2-c2ccccc21 (stereo not given)", "active"],
  ["CC(C)(C(=O)N(C(=O)N1CCN(c2ccccc2)CC1)S(=O)(=O)c1ccccc1)c1ccc(Cl)cc1", "inactive"],
  ["CCOC(=O)CCC(NC(=O)OCc1ccccc1)C(=O)NC(CCC(=O)OCC)C(=O)NC(CCC(=O)OCC)C(=O)NC(CCC(=O)OCC)C(=O)NC(CCC(=O)OCC)C(=O)NC(CCC(=O)OCC)C(=O)NC(CCC(=O)OCC)C(=O)OCC (stereo not given)", "inactive"],
  ["O=c1[nH]c(=O)n(C2OC(CO)C(O)C2O)cc1OCc1ccccc1 (stereo not given)", "inactive"],
  ["COC(=O)C1=C(OC(=O)c2ccccc2)C(C(=O)OC)[C@]2(O)[C@@H](C(=O)OC)[C@H]1C[C@@H](c1ccccc1)[C@@H]2C(=O)OC (stereo not given in full)", "inactive"],
  ["CCOC(=O)/C=C(\\N=P(c1ccccc1)(c1ccccc1)c1ccccc1)C(F)(F)C(F)(F)C(F)(F)C(F)(F)C(F)(F)F", "inactive"]
]}

Dear all, I need the recorded test outcome for Nc1c(C(=O)Nc2ccccc2)[n+]([O-])c2ccccc2[n+]1[O-] , thank you.
inactive

Record request — test call for [N-]=[N+]=CC(=O)OC(CCl)CCl
inactive

For Cc1cccc(-c2nc(-c3cnccn3)n(Cc3ccccc3)n2)c1 , what call appears in the results of this test?
inactive

Dear all, I need the recorded test outcome for Cc1ccc([Se](=C(C(=O)c2ccccc2)C(=O)c2ccccc2)c2ccc(C)cc2)cc1 , thank you.
inactive

Please let me know the test result on file for CCN(CC)CCN(C)c1ccc(CO)c2c1c(=O)c1ccccc1[s+]2[O-] (stereo not given) .
inactive

I'd appreciate the recorded outcome for CC1=NN(c2cccc(Cl)c2)C(=N/c2nc3ccccc3s2)/C1=C\c1ccc(Cl)cc1 from this test.
inactive

Check the results log: what was the call for CCOC(=O)Nc1ccc(S(=O)(=O)Nc2ccc(Br)cc2)cc1 ?
inactive

State the result this test recorded for Cn1c(N)nc2c(nc(OCc3ccccc3)n2C2OC(CO)C(O)C2O)c1=O (stereo not given) .
inactive

I would be grateful if you could indicate the recorded call for O=C1Nc2ccccc2N/C1=C\C(=O)c1ccccc1O .
inactive

Could you kindly confirm the outcome this assay logged for CC(C)(CCC(C)(C)c1ccccc1)c1ccccc1 ?
inactive

What classification did CCOC(=O)c1c(Br)c(-c2ccc(Br)cc2)c(Br)n1C end up with in this test?
inactive

Give the logged outcome of this assay for the following molecule: O=C(Nc1ccc(Cl)c(Cl)c1)C(=O)Nn1c(S)nc2ccccc2c1=O
inactive
